Provenance of the data: patent US20230011916A1

# TARGET: T1, recombinant OX40 protein with a His tag (Cat: 10481-H08H, Sino Biological) (UniProt P43489 29-216)
# T1 construct: Bought protein; also called OX40-His (bought); not shown: His tag
# T1 sequence (looked up): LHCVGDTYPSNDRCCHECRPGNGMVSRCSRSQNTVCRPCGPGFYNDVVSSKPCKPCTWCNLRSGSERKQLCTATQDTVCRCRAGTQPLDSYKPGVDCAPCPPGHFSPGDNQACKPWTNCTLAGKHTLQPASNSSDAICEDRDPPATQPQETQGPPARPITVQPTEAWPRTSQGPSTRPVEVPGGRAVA
# EXPERIMENTAL PROTOCOL: Biacore (SPR); antigen not named on the sheet, OX40-His as in Example 4
Catalogue of koff values
Number only, in s⁻¹; omit the unit.

BINDER	METRIC NAME	OBSERVED RESULT
445-2 with Y27G in the heavy chain and S24R in the light chain (antibody, human IgG1, V domains shown) VH: QVQLVQSGAEVKKPGSSVKVSCKASGGKFTSYIIHWVRQAPGQGLEWMGYINPYNEGTRYAQKFQGRVTLTADKSTSTAYMELSSLRSEDTAVYYCARGYYGSSYAMDYWGQGTTVTVSS VL: DIQMTQSPSSLSASVGDRVTITCRASQGISNYLNWYQQKPGKAIKLLIYDASTLYSGVPSRFSGSGSGTDFTLTISSLQPEDFATYYCQQYSKLPYTFGGGTKVEIK	koff	0.00135

Now look at this one.
Q: Write down koff measured for item 445-3(A61N-K28R)-3 (antibody, V domains shown) VH: QVQLVQSGAEVKKPGSSVKVSCKASGYRFTSYIIHWVRQAPGQGLEWMGYINPYNEGTRYNQKFQGRVTLTADKSTSTAYMELSSLRSEDTAVYYCARGYYGSSYAMDYWGQGTTVTVSS VL: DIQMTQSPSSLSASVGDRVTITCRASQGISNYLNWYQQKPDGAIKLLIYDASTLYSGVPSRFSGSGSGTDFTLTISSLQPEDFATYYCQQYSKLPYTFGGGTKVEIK
Ans: 0.00115
